Reference source for all entries: the supplement of paper PMC11196671

# Measurement Protocol: MHET released, HPLC; higher = more MHET released; extreme values may be limits of the assay
# Assay Context: PET substrate: aFilm; 60 °C; pH 8.5; 24 h

| Sequence Text | MHET released, mM |
| --- | --- |
| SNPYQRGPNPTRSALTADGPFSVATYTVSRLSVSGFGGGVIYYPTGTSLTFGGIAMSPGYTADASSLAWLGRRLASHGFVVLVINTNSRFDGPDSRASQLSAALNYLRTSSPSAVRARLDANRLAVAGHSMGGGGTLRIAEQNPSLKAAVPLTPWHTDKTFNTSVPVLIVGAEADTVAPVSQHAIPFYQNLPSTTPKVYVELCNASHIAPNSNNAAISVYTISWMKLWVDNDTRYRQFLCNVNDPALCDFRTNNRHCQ [LCC-ICCG] | 0.271 |
| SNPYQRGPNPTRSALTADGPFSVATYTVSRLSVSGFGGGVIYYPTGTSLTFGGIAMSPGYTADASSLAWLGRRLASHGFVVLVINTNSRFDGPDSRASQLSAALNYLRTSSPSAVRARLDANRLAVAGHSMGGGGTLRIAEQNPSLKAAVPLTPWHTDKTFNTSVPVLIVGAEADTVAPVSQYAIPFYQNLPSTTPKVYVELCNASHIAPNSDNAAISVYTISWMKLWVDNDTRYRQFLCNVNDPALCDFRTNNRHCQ [LCC-A2] | 0.322 |
| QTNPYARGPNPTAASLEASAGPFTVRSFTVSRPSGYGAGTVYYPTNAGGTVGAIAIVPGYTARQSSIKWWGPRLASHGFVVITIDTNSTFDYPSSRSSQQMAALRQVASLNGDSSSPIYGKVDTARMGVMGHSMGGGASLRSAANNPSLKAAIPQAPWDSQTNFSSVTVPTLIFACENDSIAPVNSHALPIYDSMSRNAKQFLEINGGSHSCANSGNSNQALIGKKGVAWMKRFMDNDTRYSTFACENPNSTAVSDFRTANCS [DuraPETase] | 0.099 |
| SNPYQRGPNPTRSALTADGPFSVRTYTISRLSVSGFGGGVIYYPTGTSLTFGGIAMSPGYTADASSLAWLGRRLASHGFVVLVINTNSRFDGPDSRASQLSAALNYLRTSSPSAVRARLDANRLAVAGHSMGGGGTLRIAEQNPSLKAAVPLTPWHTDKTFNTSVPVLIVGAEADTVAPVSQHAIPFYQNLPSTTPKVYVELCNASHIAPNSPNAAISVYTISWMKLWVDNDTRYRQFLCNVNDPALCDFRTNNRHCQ [LCC-ICCG RIP] | 0.309 |
| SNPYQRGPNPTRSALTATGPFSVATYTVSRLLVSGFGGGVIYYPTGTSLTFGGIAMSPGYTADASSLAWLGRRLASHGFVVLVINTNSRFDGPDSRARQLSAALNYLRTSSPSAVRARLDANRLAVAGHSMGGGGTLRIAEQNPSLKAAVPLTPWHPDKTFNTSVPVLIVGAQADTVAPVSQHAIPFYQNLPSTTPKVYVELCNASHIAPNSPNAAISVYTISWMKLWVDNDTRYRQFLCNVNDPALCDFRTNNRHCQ [LCC-ICCG I6M] | 0.333 |
| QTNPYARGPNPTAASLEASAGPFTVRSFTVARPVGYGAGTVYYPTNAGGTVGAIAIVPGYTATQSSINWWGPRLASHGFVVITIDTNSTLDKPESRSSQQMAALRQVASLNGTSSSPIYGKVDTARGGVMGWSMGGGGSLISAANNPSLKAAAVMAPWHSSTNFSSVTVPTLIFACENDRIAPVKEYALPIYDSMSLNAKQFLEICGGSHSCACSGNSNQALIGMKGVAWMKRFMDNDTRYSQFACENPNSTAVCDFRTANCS [HotPETase] | 0.303 |
